Hello, the source for this data is patent US6737383B1, in case you need it.

- System: surinam grass
- TEST DESCRIPTION: Test B pre/postemergence surinam grass
- Type: in vivo, Brachiaria decumbens
- CONDITION INFO: Preemergence, Rate 62 g/ha; scale of 0 to 10 where 0 is no effect and 10 is complete control
EXPERIMENTAL READOUT: B. signalgrass plant response rating
Answers are plain numbers.

Below are worked cases with known answers.
| MOLECULE | B. signalgrass plant response rating |
| --- | --- |
| CC(C)=CCn1c(=O)on(C(=O)N(c2ccc(F)cc2)C(C)C)c1=O [Compound 288] | 0 |
| CC(C)N(C(=O)n1oc(=O)n(CCCC#N)c1=O)c1ccc(F)cc1 [Compound 647] | 3 |
| Cc1ccccc1-n1c(=O)on(C(=O)N(c2ccc(N(C)C)cc2)C(C)C)c1=O [Compound 237] | 0 |
| CC(C)N(C(=O)n1oc(=O)n(CC(F)(F)F)c1=O)c1ccc(F)cc1 [Compound 163] | 0 |

Go through the list and state B. signalgrass plant response rating for each entry.
1. CC(C)N(C(=O)n1oc(=O)n(CC(=O)C2CCC2)c1=O)c1ccccc1 [Compound 641]
2. CC(C)N(C(=O)n1oc(=O)n(C2CCCCCC2)c1=O)c1ccc(Cl)cc1 [Compound 339]
3. CC(C)N(C(=O)n1oc(=O)n(C2CCCCO2)c1=O)c1ccc(F)cc1 (stereo not shown) [Compound 311]
4. CC(C)N(C(=O)n1oc(=O)n(CCCN(C)C)c1=O)c1ccc(F)cc1 [Compound 323]
5. CCCCn1c(=O)on(C(=O)N(c2ccc(F)cc2)C(C)C)c1=O [Compound 221]
6. CC(C)N(C(=O)n1oc(=O)n(CC2(C)COC2)c1=O)c1ccc(F)cc1 [Compound 226]

1: 0; 2: 0; 3: 0; 4: 0; 5: 5; 6: 3
